# system-name: rat A3R (Rattus norvegicus, UniProt P28647)
# Sequence (P28647 1-320): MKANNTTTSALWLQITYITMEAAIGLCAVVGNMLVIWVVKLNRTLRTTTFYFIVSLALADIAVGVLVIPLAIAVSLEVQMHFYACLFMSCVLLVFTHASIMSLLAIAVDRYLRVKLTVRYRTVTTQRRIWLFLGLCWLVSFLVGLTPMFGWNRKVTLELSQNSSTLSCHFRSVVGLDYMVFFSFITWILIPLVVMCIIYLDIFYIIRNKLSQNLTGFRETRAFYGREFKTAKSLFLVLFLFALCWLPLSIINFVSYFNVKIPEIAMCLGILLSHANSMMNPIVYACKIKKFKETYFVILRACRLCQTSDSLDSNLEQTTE
pKi: −log10 of the molar value.

structure-notation	pKi
CC(C)=CCNc1ncnc2c1ncn2[C@@H]1O[C@H](CO)[C@@H](O)[C@H]1O	5.33
